Molecular target: SMARCA2 (Homo sapiens)
Assay: MSD SMARCA2 degradation in A549 cell line
Type: cell-based
Conditions: A549 cells
VALUE TYPE: SMARCA2 MSD A549 degradation 24 h: Average Dmax %

Recorded results for 5 molecules are shown here.
INSERT INTO results (molecule, val) VALUES
  ('C#Cc1ccc(CNC(=O)[C@@H]2C[C@@H](O)CN2C(=O)[C@@H](NC(=O)[C@H]2CCC3(CC2)C[C@H](N2CCN(c4cnc(N5CCN6c7cc(-c8ccccc8O)nnc7NC[C@H]6C5)nc4)CC2)C3)C(C)(C)C)cc1 (single isomer, unassigned)', 'A (A (>90% degradation))'),
  ('Cc1ncsc1-c1ccc(CNC(=O)[C@@H]2C[C@@H](O)CN2C(=O)[C@@H](NC(=O)[C@H]2CC3(C2)C[C@H](N2CCN(c4cnc(N5CCN6c7cc(-c8ccccc8O)nnc7NC[C@H]6C5)nc4)CC2)C3)C(C)(C)C)cc1 (some centres unmarked) [I-19]', 'A (A (>90% degradation))'),
  ('C#Cc1ccc(CNC(=O)[C@@H]2C[C@@H](O)CN2C(=O)[C@@H](NC(=O)[C@H]2CCC3(CC2)C[C@H](N2CCC(N(C)CCN4CCN5c6cc(-c7ccccc7O)nnc6NC[C@H]5C4)CC2)C3)C(C)(C)C)cc1 (single isomer, unassigned)', 'A (A (>90% degradation))'),
  ('C#Cc1ccc(CNC(=O)[C@@H]2C[C@@H](O)CN2C(=O)[C@@H](NC(=O)[C@H]2CCC3(CC2)C[C@H](N2CCC(N4CCC(N5CCN6c7cc(-c8ccccc8O)nnc7NC[C@H]6C5)CC4)CC2)C3)C(C)(C)C)cc1 (single isomer, unassigned)', 'A (A (>90% degradation))'),
  ('Cc1ncsc1-c1ccc(CNC(=O)[C@@H]2C[C@@H](O)CN2C(=O)[C@@H](NC(=O)[C@H]2CC3(CC[C@H](N4CCN(c5cnc(N6CCc7[nH]c8nnc(-c9ccccc9O)cc8c7[C@H]6C)nc5)CC4)CC3)C2)C(C)(C)C)cc1 (single isomer, unassigned)', 'A (A (>90% degradation))');

The record that follows has no SMARCA2 MSD A549 degradation 24 h: Average Dmax % shown yet.
Inquiry: Which SMARCA2 MSD A549 degradation 24 h: Average Dmax % reading was recorded for the molecule C#Cc1ccc(CNC(=O)[C@@H]2C[C@@H](O)CN2C(=O)[C@@H](NC(=O)[C@H]2CCC3(CC2)C[C@H](N2CCC(c4cnc(N5CCN6c7cc(-c8ccccc8O)nnc7NC[C@H]6C5)nc4)CC2)C3)C(C)(C)C)c(F)c1 (single isomer, unassigned) ?
Reply text: A (A (>90% degradation))

---

Form field: DC50 (one value per entry).
Target: SMARCA2 (Homo sapiens, UniProt P51531)
Sequence (P51531 whole entry): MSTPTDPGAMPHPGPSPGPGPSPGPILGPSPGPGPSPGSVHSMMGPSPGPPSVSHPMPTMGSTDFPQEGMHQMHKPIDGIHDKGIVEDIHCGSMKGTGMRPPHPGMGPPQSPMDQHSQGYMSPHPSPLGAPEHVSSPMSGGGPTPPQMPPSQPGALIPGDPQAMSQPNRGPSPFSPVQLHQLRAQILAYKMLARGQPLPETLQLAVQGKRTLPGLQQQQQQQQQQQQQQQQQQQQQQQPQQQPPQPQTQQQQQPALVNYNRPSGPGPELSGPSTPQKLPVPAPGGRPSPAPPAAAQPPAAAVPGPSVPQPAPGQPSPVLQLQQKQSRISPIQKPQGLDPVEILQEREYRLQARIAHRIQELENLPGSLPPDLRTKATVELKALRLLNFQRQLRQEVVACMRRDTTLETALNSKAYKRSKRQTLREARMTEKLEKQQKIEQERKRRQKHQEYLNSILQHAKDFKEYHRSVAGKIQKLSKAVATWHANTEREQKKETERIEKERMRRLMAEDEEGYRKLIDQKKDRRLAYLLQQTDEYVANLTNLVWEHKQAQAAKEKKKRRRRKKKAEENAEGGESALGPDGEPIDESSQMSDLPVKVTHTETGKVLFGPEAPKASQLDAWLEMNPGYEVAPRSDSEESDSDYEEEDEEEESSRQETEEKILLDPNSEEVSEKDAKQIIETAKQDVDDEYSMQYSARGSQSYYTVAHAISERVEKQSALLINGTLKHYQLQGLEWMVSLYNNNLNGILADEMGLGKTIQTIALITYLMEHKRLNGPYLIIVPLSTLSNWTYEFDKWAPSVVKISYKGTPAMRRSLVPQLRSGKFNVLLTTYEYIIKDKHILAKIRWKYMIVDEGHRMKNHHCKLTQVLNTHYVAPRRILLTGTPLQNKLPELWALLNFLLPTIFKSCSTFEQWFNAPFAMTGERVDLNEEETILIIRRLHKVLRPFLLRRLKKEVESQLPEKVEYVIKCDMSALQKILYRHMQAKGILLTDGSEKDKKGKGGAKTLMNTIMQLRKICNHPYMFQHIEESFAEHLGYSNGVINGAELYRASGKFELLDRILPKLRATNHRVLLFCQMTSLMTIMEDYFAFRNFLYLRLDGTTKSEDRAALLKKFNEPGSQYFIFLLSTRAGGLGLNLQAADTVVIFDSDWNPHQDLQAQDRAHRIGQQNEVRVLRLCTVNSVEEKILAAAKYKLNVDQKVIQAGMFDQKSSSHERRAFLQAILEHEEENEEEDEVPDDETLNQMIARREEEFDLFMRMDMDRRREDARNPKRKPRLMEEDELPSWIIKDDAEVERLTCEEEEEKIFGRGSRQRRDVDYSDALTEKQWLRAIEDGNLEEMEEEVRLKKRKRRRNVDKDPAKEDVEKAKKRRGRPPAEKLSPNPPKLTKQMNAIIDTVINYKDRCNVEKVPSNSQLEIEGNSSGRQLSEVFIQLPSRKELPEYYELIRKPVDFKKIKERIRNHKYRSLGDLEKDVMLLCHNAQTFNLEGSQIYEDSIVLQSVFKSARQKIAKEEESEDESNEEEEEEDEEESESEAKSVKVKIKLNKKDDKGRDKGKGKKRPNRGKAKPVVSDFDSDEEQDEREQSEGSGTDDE
Assay: SMARCA2 Western blot degradation in MV4-11 cells
Assay type: cell-based
Parameters: SMARCA2/SMARCA4 protein degradation selectivity in MV4-11 cells; endogenous in cells; host or cells: MV4-11
Conditions: MV4-11 cells, 24 h; read-out: SMARCA2 MSD MV411 degradation 24 h: Mean external-Abs DC50

INSERT INTO measurements (molecule, val) VALUES
  ('Cc1ncsc1-c1ccc(CNC(=O)[C@@H]2C[C@@H](O)CN2C(=O)[C@@H](NC(=O)[C@H]2CC3(C2)C[C@H](N2CCN(c4cnc(N5CCN6c7cc(-c8ccccc8O)nnc7NC[C@H]6C5)nc4)CC2)C3)C(C)(C)C)cc1 (stereo partly shown) [I-18]', '0.01 to 0.1 µM'),
  ('Cc1ncsc1-c1ccc(CNC(=O)[C@@H]2C[C@@H](O)CN2C(=O)C(c2cc(OC[C@H]3CC[C@H](N4CCC(c5cnc(N6CCc7[nH]c8nnc(-c9ccccc9O)cc8c7[C@@H]6C)nc5)CC4)CC3)no2)C(C)C)cc1 (single isomer, unassigned) [I-15]', '0.001 to 0.01 µM'),
  ('C#Cc1ccc(CNC(=O)[C@@H]2C[C@@H](O)CN2C(=O)[C@@H](NC(=O)[C@H]2CC3(C2)C[C@H](N2CCC(N4CCC(N5CCN6c7cc(-c8ccccc8O)nnc7NC[C@H]6C5)CC4)CC2)C3)C(C)(C)CCO)cc1 (single isomer, unassigned) [I-364]', '0.01 to 0.1 µM');

Turning now to a further molecule:
Inquiry: Report DC50 for C#Cc1ccc(CNC(=O)[C@@H]2C[C@@H](O)CN2C(=O)[C@@H](NC(=O)[C@H]2CC3(C2)C[C@H](N2CCC(N4CCC(N5CCN6c7cc(-c8ccccc8O)nnc7NC[C@H]6C5)CC4)CC2)C3)C(C)(C)C)c(Cl)c1 (single isomer, unassigned) [I-229] please.
Reply text: 0.01 to 0.1 µM
